Tested on: NCI-H1792
protocol_description: relative viability (nuclei count vs DMSO), 5 days (fraction); higher = more cells survive
experimental_setup: first compound 0.0002 µM
This listing pairs molecules with measured relative viability.
measured_attribute: relative viability

- CC(=O)O[C@@]12CO[C@@H]1C[C@H](O)[C@@]1(C)C(=O)[C@H](O)C3=C(C)[C@@H](OC(=O)[C@H](O)[C@@H](NC(=O)OC(C)(C)C)c4ccccc4)C[C@@](O)([C@@H](OC(=O)c4ccccc4)[C@H]21)C3(C)C [Docetaxel] + CC(=O)Nc1cccc(-n2c(=O)n(C3CC3)c(=O)c3c(Nc4ccc(I)cc4F)n(C)c(=O)c(C)c32)c1 [Trametinib] (partner 0.02 µM): 0.377
- CC(=O)O[C@@]12CO[C@@H]1C[C@H](O)[C@@]1(C)C(=O)[C@H](O)C3=C(C)[C@@H](OC(=O)[C@H](O)[C@@H](NC(=O)OC(C)(C)C)c4ccccc4)C[C@@](O)([C@@H](OC(=O)c4ccccc4)[C@H]21)C3(C)C [Docetaxel] + Cc1nc(NC(=O)N2CCC[C@H]2C(N)=O)sc1-c1ccnc(C(C)(C)C(F)(F)F)c1 [Alpelisib] (partner 2 µM): 0.728
- CC(=O)O[C@@]12CO[C@@H]1C[C@H](O)[C@@]1(C)C(=O)[C@H](O)C3=C(C)[C@@H](OC(=O)[C@H](O)[C@@H](NC(=O)OC(C)(C)C)c4ccccc4)C[C@@](O)([C@@H](OC(=O)c4ccccc4)[C@H]21)C3(C)C [Docetaxel] + CC(=O)c1c(C)c2cnc(Nc3ccc(N4CCNCC4)cn3)nc2n(C2CCCC2)c1=O [Palbociclib] (partner 0.5 µM): 0.651
- CC(=O)O[C@@]12CO[C@@H]1C[C@H](O)[C@@]1(C)C(=O)[C@H](O)C3=C(C)[C@@H](OC(=O)[C@H](O)[C@@H](NC(=O)OC(C)(C)C)c4ccccc4)C[C@@](O)([C@@H](OC(=O)c4ccccc4)[C@H]21)C3(C)C [Docetaxel] + CCNC(=O)c1noc(-c2cc(C(C)C)c(O)cc2O)c1-c1ccc(CN2CCOCC2)cc1 [Luminespib] (partner 0.01 µM): 0.43
- CC(=O)O[C@@]12CO[C@@H]1C[C@H](O)[C@@]1(C)C(=O)[C@H](O)C3=C(C)[C@@H](OC(=O)[C@H](O)[C@@H](NC(=O)OC(C)(C)C)c4ccccc4)C[C@@](O)([C@@H](OC(=O)c4ccccc4)[C@H]21)C3(C)C [Docetaxel] + N=C(N)NC(=N)NCCc1ccccc1 [Phenformin] (partner 250 µM): 0.221
- CC(=O)O[C@@]12CO[C@@H]1C[C@H](O)[C@@]1(C)C(=O)[C@H](O)C3=C(C)[C@@H](OC(=O)[C@H](O)[C@@H](NC(=O)OC(C)(C)C)c4ccccc4)C[C@@](O)([C@@H](OC(=O)c4ccccc4)[C@H]21)C3(C)C [Docetaxel] + COc1cccc2cc(-c3nc([C@H]4CC[C@H](C(=O)O)CC4)n4ncnc(N)c34)[nH]c12 [OSI-027] (partner 0.5 µM): 0.673
- CC(=O)O[C@@]12CO[C@@H]1C[C@H](O)[C@@]1(C)C(=O)[C@H](O)C3=C(C)[C@@H](OC(=O)[C@H](O)[C@@H](NC(=O)OC(C)(C)C)c4ccccc4)C[C@@](O)([C@@H](OC(=O)c4ccccc4)[C@H]21)C3(C)C [Docetaxel] + CC1(C)CCC(c2ccc(Cl)cc2)=C(CN2CCN(c3ccc(C(=O)NS(=O)(=O)c4ccc(N[C@H](CCN5CCOCC5)CSc5ccccc5)c(S(=O)(=O)C(F)(F)F)c4)cc3)CC2)C1 [Navitoclax] (partner 0.5 µM): 0.441
